- ASSAY_TARGET: acetylcholinesterase (Rattus norvegicus)
- Construct: Acetylcholinesterase: rat cortex; from tissue; host or cells: rat cortex
- Sequence (P37136 32-614): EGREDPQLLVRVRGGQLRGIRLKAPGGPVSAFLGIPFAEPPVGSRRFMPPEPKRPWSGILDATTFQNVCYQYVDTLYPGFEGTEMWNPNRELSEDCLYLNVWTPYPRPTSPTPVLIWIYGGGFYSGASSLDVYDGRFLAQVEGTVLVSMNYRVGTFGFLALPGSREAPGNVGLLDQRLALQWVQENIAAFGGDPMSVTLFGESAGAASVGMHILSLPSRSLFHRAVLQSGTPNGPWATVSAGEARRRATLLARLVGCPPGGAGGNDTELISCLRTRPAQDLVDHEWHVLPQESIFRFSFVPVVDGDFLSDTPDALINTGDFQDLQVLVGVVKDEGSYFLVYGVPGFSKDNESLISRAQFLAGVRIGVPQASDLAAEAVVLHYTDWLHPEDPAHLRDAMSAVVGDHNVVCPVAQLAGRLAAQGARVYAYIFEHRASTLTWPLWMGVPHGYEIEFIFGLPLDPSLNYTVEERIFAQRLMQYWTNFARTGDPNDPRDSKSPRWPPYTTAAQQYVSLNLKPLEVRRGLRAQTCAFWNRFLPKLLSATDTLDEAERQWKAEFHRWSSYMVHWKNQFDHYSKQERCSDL
- MEASUREMENT_NOTES: biochemical
- Type: biochemical
- EXPERIMENTAL_PARAMETERS: rat cortex enzyme; final concentration 4×10−5 mol/L
I'd be grateful if you could share measured acetylcholinesterase inhibitory activity inhibition ratio (%) for these entries.
Output spec: scalar in %, unitless text.

### Prompt Need acetylcholinesterase inhibitory activity inhibition ratio (%) of CCOc1cc2c(cc1OCC)C(=O)C(CC1(F)CCN(Cc3ccccc3F)CC1)C2 (centres unmarked) , thanks.
### Response 97.09

### Prompt Reported acetylcholinesterase inhibitory activity inhibition ratio (%) for CCOCOc1cc2c(cc1OCOCC)C(=O)C(CC1(F)CCN(Cc3ccccc3F)CC1)C2 (centres unmarked) : what is it?
### Response 93.05

### Prompt Value lookup for acetylcholinesterase inhibitory activity inhibition ratio (%); key = COc1cc2c(cc1OC)C(=O)C(CC1(F)CCN(CC3CCC3)CC1)C2 (centres unmarked)
### Response 85.82

### Prompt Record request: acetylcholinesterase inhibitory activity inhibition ratio (%) value, item COc1cc2c(cc1OC)C(=O)C(CC1(F)CCN(Cc3ccc(C(F)(F)F)cc3)CC1)C2 (centres unmarked)
### Response 75.25

### Prompt Given the entry COc1cc2c(cc1OC)C(=O)C(CC1(F)CC3CCC(C1)N3Cc1ccc(-c3ccccc3)cc1)C2 (centres unmarked) , report its measured acetylcholinesterase inhibitory activity inhibition ratio (%).
### Response 85.3

### Prompt Using the record for COc1cc2c(cc1OC)C(=O)C(CC1(F)CCN(Cc3ccccc3F)C(C(=O)O)C1)C2 (centres unmarked) , report its acetylcholinesterase inhibitory activity inhibition ratio (%).
### Response 82.49

### Prompt Would you kindly share the measured acetylcholinesterase inhibitory activity inhibition ratio (%) for COc1cc2c(cc1OC)C(=O)C(CC1(F)CC3CCC(C1)N3Cc1c(F)cccc1[N+](=O)[O-])C2 (centres unmarked) ?
### Response 77.3

### Prompt Report acetylcholinesterase inhibitory activity inhibition ratio (%) for COc1cc2c(cc1OC)C(=O)C(CC1(F)CC3CCC(C1)N3Cc1cc(F)cc(F)c1F)C2 (centres unmarked) please.
### Response 72.53

### Prompt Reported acetylcholinesterase inhibitory activity inhibition ratio (%), molecule COc1cc2c(cc1OC)C(=O)C(CC1(F)CCN(Cc3ccccc3F)CC1)C2 (centres unmarked) : ____
### Response 82.04

### Prompt // acetylcholinesterase inhibitory activity inhibition ratio (%) lookup, key: COc1cc2c(cc1OC)C(=O)C(CC1(F)CC3CCC(C1)N3Cc1cccc(F)c1)C2 (centres unmarked)
### Response 96.75

### Prompt What does the data say about its acetylcholinesterase inhibitory activity inhibition ratio (%)? Entry: COc1cc2c(cc1OC)C(=O)C(CC1(F)CCN(Cc3cc(F)c(F)cc3F)CC1)C2 (centres unmarked)
### Response 81.84

### Prompt Record request: acetylcholinesterase inhibitory activity inhibition ratio (%) value, item COc1cc2c(cc1OC)C(=O)C(CC1(F)CCN(Cc3ccccc3C#N)CC1)C2 (centres unmarked)
### Response 80.04

### Prompt Suppose we examine the molecule COc1cc2c(cc1OC)C(=O)C(CC1(F)CC3CCC(C1)N3Cc1ccc(C(C)(C)C)cc1)C2 (centres unmarked) ; what acetylcholinesterase inhibitory activity inhibition ratio (%) value has been reported?
### Response 75.33

### Prompt Can you share its acetylcholinesterase inhibitory activity inhibition ratio (%)? I mean this molecule: O=C1c2cc(OC(F)F)c(OC(F)F)cc2CC1CC1(F)CCN(Cc2ccccc2F)CC1 (centres unmarked)
### Response 98.02
